Assay: qHTS profiling of the MIPE4 collection as inhibitors of Plasmodium falciparum (DD2) proliferation (AID 743345)
Conditions: P. falciparum Dd2 in erythrocytes, SYBR Green DNA, 72 h; at 28.5 µM (top of the series) unless noted
QUANTITY: parasite growth remaining, % of DMSO control (lower = more inhibition)

Below, 5 compounds whose answers are already recorded.
NC(=O)c1ncn([C@@H]2O[C@H](CO)[C@@H](O)[C@@H]2O)n1    90.2%
C[C@H](CCC(=O)O)[C@H]1CC[C@H]2[C@@H]3[C@H](O)C[C@@H]4C[C@H](O)CC[C@]4(C)[C@@H]3CC[C@]12C    92.9%
CN1C2CCC1CC(OC(=O)C(CO)c1ccccc1)C2 (configuration not stated)    94.5%
CCN1C[C@H](C)n2c(c(O)c3c(=O)n(Cc4ccc(F)c(Cl)c4)nc(C(=O)NC)c32)C1=O    55.9%
COc1ccc(C2(C#N)CCC(C(=O)O)CC2)cc1OC1CCCC1 (configuration not stated)    101%

[ask] Annotate the compound O=C(C[C@@H]1NCCC[C@@H]1O)Cn1cnc2ccccc2c1=O with its measured parasite growth remaining, % of DMSO control (lower = more inhibition).
[reply] 6.53%

[ask] Please report parasite growth remaining, % of DMSO control (lower = more inhibition) for the following compound: CC(C(=O)O)c1ccc(-c2ccccc2)c(F)c1 (configuration not stated)
[reply] 95.5%

====

Catalogue of molecules with associated max response
Test system: NIH3T3
Assay: Cytotoxic Profiling of Annotated Libraries Using Quantitative High-Throughput Screening (AID 1296008); note: % is set by controls: 0 for no effect and ±100 for the full control effect; nearly all actives have a fitted effect of over 60% in size
Conditions: Five cell lines viability, CellTiter-Glo ATP luminescence, 48-72 h; stronger effect = lower value
Inconclusive results are not listed.
Kindly answer with a numeric value in %, unit omitted.

[ask] State, in one line, measured max response of COc1cc(O)c2c(c1)/C=C/C[C@@H](O)[C@@H](O)C(=O)CCC[C@H](C)OC2=O
[reply] -5.04

[ask] Answer with reported max response of CCC1CC2CN3CCc4c([nH]c5ccccc45)C(C(=O)OC)(C2)C13 (stereo not drawn)
[reply] -4.92

[ask] Annotate the molecule NC(=O)c1ncn2c1CN=C(c1ccccc1Br)c1cc(F)ccc1-2 with its measured max response.
[reply] 1.84

[ask] Return value of max response for input CC(=O)O[C@H]1CC[C@@]2(CI)C(=CC[C@@H]3[C@@H]2CC[C@]2(C)C(=O)CC[C@@H]32)C1 , no commentary.
[reply] 0.959

[ask] Write down max response measured for item CO[C@H]1[C@@H](O)[C@@H](C)O[C@@H](O[C@@H]2C=C3C(OC(C)=O)CC4(O)C(CC[C@]5(C)[C@@H](C6=CC(=O)OC6)CC[C@]45O)[C@@]3(C)CC2)[C@@H]1O (stereo partly drawn)
[reply] -11.7

[ask] Recall and state the measured max response for C[C@]12CC[C@H](O[C@@H]3O[C@H](CO)[C@@H](O)[C@H](O)[C@H]3O)CC1=CC[C@@H]1C2CC[C@]2(C)[C@@H](C3=CC(=O)OC3)CC[C@]12O (stereo partly drawn) .
[reply] 0.891

[ask] Provide one value: measured max response of CC1CCCC(O)CC(=O)Cc2cc(O)cc(O)c2C(=O)O1 (stereo not drawn)
[reply] 2.95

[ask] State, in one line, measured max response of C[C@]12CC[C@H](O)C[C@@]1(O)CC[C@@H]1[C@@H]2CC[C@]2(C)[C@@H](c3ccc(=O)oc3)CC[C@]12O
[reply] -7.45

====

System: C33A
Assay: Primary qHTS to identify gynecologic anti-cancer compounds using libraries of approved drugs and bioactive compounds (AID 1345084); note: nearly all actives have a fitted effect of over 55% in size
Details: Gynecologic cancer cell panel viability, ATPlite luminescence, 48 h; series mostly up to 57.5 µM
Results filed as inconclusive are left out. Active and inactive are the calls of the source. Calls come from the whole dose curve; as a rule, active = well fitted cell-killing curve with a large enough effect; inconclusive = small, poorly fitted or top-dose-only effect, or effect the other way; inactive = flat fitted curve, though single readings scatter. *1 amine or outer side, *2 acyl side, *3 side chain or, on linkers, in order; H or OH if unused. Where a SMILES comes first, the peptide text is derived from it. [ ]: non-standard residue; d: D form. X7 = O=C([C@@H](CC(O)CCl)O[*:1])[*:2]; aIle = CC[C@@H](C)[C@H](N)C(=O)O; NMeV = CN[C@H](C(=O)O)C(C)C; NMeA = CN[C@@H](C)C(=O)O; βAla = NCCC(=O)O
Pick from active, inactive when you respond.

Here's what some known entries look like.
CC[C@H]1C2CC3[C@@H]4N(C)c5ccccc5[C@]45C[C@@H]([C@H]2[C@H]5O)N3[C@@H]1O    inactive
COC(=O)C12C(=O)C(C)(O)C(=O)C1(C)C(C)=CC1C34CCC(OC3=O)C(C)(C)C4CCC12C (configuration not stated)    inactive
C/C=C1/CN2CC[C@]34C(=Nc5ccccc53)[C@@H]2C[C@@H]1[C@H]4C(=O)OC    inactive
CC(=O)NCCCOc1ccc(C(=O)N2CCC(N3C(=O)CCc4ccccc43)CC2)cc1    inactive
CC(C)(O)/C=C/C(=O)[C@](C)(O)[C@H]1[C@H](O)C[C@@]2(C)[C@@H]3CC=C4[C@@H](C[C@H](O)C(=O)C4(C)C)[C@]3(C)C(=O)C[C@]12C    inactive
C/C1=C/[C@@H](C)C/C=C/[C@H]2[C@@H]3O[C@]3(C)[C@@H](C)[C@H]3[C@H](Cc4c[nH]c5ccccc45)NC(=O)[C@]32C(=O)/C=C\C(=O)[C@@H]1O    inactive
NC(=O)c1ncn2c1CN=C(c1ccccc1Br)c1cc(F)ccc1-2    inactive
CO[C@@H]1C[C@H](O[C@H]2CC[C@@]3(C)C(CCC4C3CC[C@]3(C)[C@@H](C5=CC(=O)OC5)[C@@H](OC(C)=O)CC43O)C2)O[C@H](C)[C@@H]1O[C@H]1O[C@H](CO[C@@H]2O[C@H](CO)[C@@H](O)[C@H](O)[C@H]2O)[C@@H](O)[C@H](O)[C@H]1O (some centres not stated)    active
C=CC/C=C\C/C=C\CCCCCCCc1cc(O)cc(O)c1    inactive
C=C(C)[C@@H]1[C@H]2OC(=O)[C@H]1[C@]1(O)C[C@H]3O[C@]34C(=O)O[C@H]2[C@]14C    inactive

[ask] Give the logged outcome of this assay for the following molecule: CC[C@@H](C)[C@@H]1NC(=O)[C@@H]2CCCN2C(=O)[C@@H](CC(O)CCl)OC(=O)CCNC(=O)[C@H](C)N(C)C(=O)[C@H](C(C)C)N(C)C1=O (some centres not stated) (cyclo([NMeA][βAla][X7]P[aIle][NMeV]))
[reply] active

[ask] Called result for CC[C@@]1(O)C(=O)OCc2c1cc1n(c2=O)Cc2cc3c(OC)cccc3nc2-1
[reply] active

====

Test system: KB-3-1
Test: Cytotoxic Profiling of Annotated Libraries Using Quantitative High-Throughput Screening (AID 1296008); note: % is set by controls: 0 for no effect and ±100 for the full control effect; nearly all actives have a fitted effect of over 60% in size
Details: Five cell lines viability, CellTiter-Glo ATP luminescence, 48-72 h; stronger effect = lower value
Records with an inconclusive call do not appear.
QUANTITY: max response (%)
Record the value in %, omitting the unit from your answer.

CCC(=O)O[C@](Cc1ccccc1)(c1ccccc1)[C@H](C)CN(C)C    0.566

[ask] Provide max response value for the following compound: C=C1CC[C@H]2[C@@H](/C=C(\C)C(=O)[C@@]3(OC(C)=O)C[C@H](C)[C@H](OC(=O)c4ccccc4)[C@@H]3[C@H]1OC(C)=O)C2(C)C
[reply] 4.96

[ask] Fill in max response for record C1=C(c2cnc[nH]2)c2ccsc2CC1
[reply] -3.3

====

Test: qHTS for Inhibitors of the Functional Ribonucleoprotein Complex (vRNP) of Lymphocytic Choriomeningitis Arenaviruses (LCMV): Viability assay - alamar blue signal for LCMV Primary Screen (AID 1347085); note: nearly all actives have a fitted effect of over 80% in size; note: potency is the fitted concentration of half-maximal effect
Conditions: alamar blue viability counter-screen, LCMV vRNP screen cells; series mostly up to 57.5 µM
Records with an inconclusive call do not appear. Activity calls are given as the source filed them. Calls come from the whole dose curve; tested in HEK293 reporter line.
QUANTITY: Potency

Sample answers from the record:
CC(=O)[C@H]1CC[C@H]2[C@@H]3CCC4=CC(=O)CC[C@]4(C)[C@H]3CC[C@]12C    inactive
C=C[C@@]1(C)CCC(/C(C)=C/C=C/C(C)(C)O)C[C@@H]1C(=C)C (some centres not stated)    inactive
CCCCCCCCCCCC(=O)c1c(O)cccc1O    inactive
CC(=O)Nc1cccc(-n2c(=O)n(C3CC3)c(=O)c3c(Nc4ccc(I)cc4F)n(C)c(=O)c(C)c32)c1    inactive
Cn1c2ccccc2c2c3c(c4c5ccccc5n(CCC#N)c4c21)CNC3=O    3.85 µM (active)

Let us move to another entry and its Potency.
[ask] Kindly indicate its recorded Potency. Item: C[C@@H]1CC=CC=CC=CC=C[C@@H](O[C@@H]2O[C@H](C)[C@@H](O)[C@H](N)[C@H]2O)C[C@@H]2O[C@](O)(C[C@@H](O)C[C@@H]3O[C@@H]3C=CC(=O)O1)C[C@H](O)[C@@H]2C(=O)O
[reply] inactive
